Target entity: BKV VP1 VLP (BK virus (BKV), AS strain) (UniProt P14996)
Sequence (P14996 whole entry): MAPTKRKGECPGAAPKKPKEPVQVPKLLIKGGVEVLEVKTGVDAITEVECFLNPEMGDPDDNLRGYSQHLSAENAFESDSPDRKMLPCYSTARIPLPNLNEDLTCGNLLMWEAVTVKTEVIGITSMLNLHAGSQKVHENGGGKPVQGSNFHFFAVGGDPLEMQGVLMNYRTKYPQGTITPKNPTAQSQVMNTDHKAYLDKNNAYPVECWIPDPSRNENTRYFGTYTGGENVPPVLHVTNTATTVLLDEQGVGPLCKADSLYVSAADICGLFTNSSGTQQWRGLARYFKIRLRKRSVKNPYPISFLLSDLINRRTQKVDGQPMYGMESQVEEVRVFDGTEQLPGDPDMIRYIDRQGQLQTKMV
Assay method text: direct ELISA
Readout kind: EC50 (nM)
Report the value in nM with no unit label.

# annotated cases, reported EC50 shown
Fill in EC50 for record NI-307.25G10 (antibody, V domains shown) VH: EVQLVESGGGLVQPGGSLRLSCVASGIIFKDYDFHWVRQVKEKGLEWVSAIGTAGDPYYAASVKGRFTVSRENGKNSVYLRMNNVGAGDTALYYCTSGNYFDRGSFRPSAFDMWGQGTMVTVSS VL: EIVLTQSPGTLSLSPGERATLSCWASQSVSSNYLAWYQHKPGQAPRLLIFRASRRATDIPERFSAGGSGTDFTLTISRLEAEDSAVYYCQEYGSAPPASITFGQGTRLEIK 0.172

Item NI-307.3G4 (antibody, V domains shown) VH: QVQLVQSGAELKKPGAAVKVSCQASGYNFLSYGINWVRQIPGQGLQWLGWISTYDGTMNYDQKPDNRVTVTTDTSSSTVYLELRGLRSDDTGVYYCVRDRCAGAGCSHSLGYWGQGTLVTVSS VL: DIQMTQSPSALSASVGDRVTISCRASQNINTQLNWYQEKPGKAPELLIYGAFNLQSGAPSTFSGSGSGTDFTLTITSLQPEDFASYYCQQGFHAPYTFGRGTKVDIK : provide EC50 16.4

Please find the next binder below.
Identify measured EC50 corresponding to NI-307.43A11 (antibody, V domains shown) VH: QVQLQESGPGLVKPSGTLSLTCAVTGGSISSSNWWSWVRQSPGKGLEWIGEIHHDGNLNYNPLLKSRVSMSLDRSKNQFSLKLTSVTAADTAVYYCARWDFFFDSSYYIRGFDLWGQGTMVTVSS VL: ETTLTQSPGTLSLSPGERVTLSCRASQSVDRNYLAWYQQKPGQSPRLLIYSASRRATGIPDRFSGSGSGTDFTLTISRLEPEDFVVYYCQQYGGSPPITFGQGTRLEIK 10
